target.entity: chicken GCRP receptor (chicken)
recorded.metric: CRE-luc reporter, HEK293T cells with the receptor: EC50

Here's what some known entries look like.
[
  {
    "binder": "HADGTFTSDINKILDDMAAKEFLKWLINTKVTQ [Chicken GLP2]",
    "reported.measurement": "33.4 nM"
  },
  {
    "binder": "HSEGTFTSDFTRYLDKMKAKDFVHWLINT [Chicken GCRP]",
    "reported.measurement": "0.87 nM"
  },
  {
    "binder": "YSEATLASDYSRTMDNMLKKNFVEWLLARREKKSDNVIEPY [Chicken GIP]",
    "reported.measurement": "69.2 nM"
  },
  {
    "binder": "HSEGTFSSDLTRYLDKMKAKDFVQWLMN [Xenopus GCRP]",
    "reported.measurement": "1.18 nM"
  }
]

Could you now look at the following binder, please?
Consider the binder shown here: HTDGMFTSDLTNYLDKMKAKNFVEWLAAIKQQE [Medaka GCRP] What is its recorded CRE-luc reporter, HEK293T cells with the receptor: EC50? 68.2 nM
